Exercise: for every item that follows, state its recorded Emax.
Target: APOL1 G1 (Homo sapiens, UniProt O14791, I384M/S342G)
Sequence (O14791 28-398 S342G/I384M): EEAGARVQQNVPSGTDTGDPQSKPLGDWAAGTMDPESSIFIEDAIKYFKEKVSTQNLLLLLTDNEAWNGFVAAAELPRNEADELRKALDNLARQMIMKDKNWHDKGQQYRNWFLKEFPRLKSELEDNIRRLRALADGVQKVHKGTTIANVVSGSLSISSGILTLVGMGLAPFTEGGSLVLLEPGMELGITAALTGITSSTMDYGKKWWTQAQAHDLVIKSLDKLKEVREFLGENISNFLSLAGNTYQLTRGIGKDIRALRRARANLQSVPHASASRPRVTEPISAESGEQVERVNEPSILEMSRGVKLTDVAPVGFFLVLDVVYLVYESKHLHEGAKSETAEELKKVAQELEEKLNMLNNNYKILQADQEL
Test: MultiTox-Fluor Multiplex Cytotoxicity Assay, tet-inducible APOL1 G1 T-REx-HEK293 cells
Assay type: cell-based
Design: expressed in transfected cells; host or cells: T-REx HEK293, clone G1 DC3.25 (pAAVS1-Puro-APOL1 G1)
Conditions: Multi-Tox Assay; APOL1 variant not given; read-out: Multi-Tox Assay Max Activity (%)
Protocol: The MultiTox-Fluor Multiplex Cytotoxicity Assay is a single-reagent-addition, homogeneous, fluorescence assay that measures the number of live and dead cells simultaneously in culture wells. […] The live-cell protease activity is restricted to intact viable cells and is measured using a fluorogenic, cell-permeant peptide glycyl-phenylalanylamino fluorocoumarin (GF-AFC) substrate. […] Assay ready plates from the Global Compound Archive were ordered using template 384_APOL1Cell_DR10n2_50uM_v3. […]
Answers are plain numbers, in %.

# example entries with known answers
{"MOLECULE": "CC1CC2(CC(c3ccc4c(c3)OCC(=O)N4)N1)OCCc1cc(Cl)sc12 (stereo not shown) [Compound 39]", "Emax, %": 99.7}
{"MOLECULE": "C[C@H]1C[C@@]2(C[C@@H](c3cnn(-c4ccccc4)c3)N1)OCCc1cc(Cl)sc12 (racemic) [Compound 65]", "Emax, %": 99.5}
{"MOLECULE": "C[C@H]1C[C@@]2(C[C@@H](c3cnn(C)c3)N1)OCCc1cc(Cl)sc12 [Compound 19]", "Emax, %": 99.3}
{"MOLECULE": "C[C@H]1C[C@@]2(C[C@@H](c3c[nH]cn3)N1)OCCc1cc(Cl)sc12 (racemic) [Compound 85]", "Emax, %": 99.3}
{"MOLECULE": "C[C@H]1C[C@@]2(C[C@@H](CC3CCOCC3)N1)OCCc1cc(Cl)sc12 [Compound 219]", "Emax, %": 88.7}
{"MOLECULE": "C[C@@H]1CC2(C[C@H](C)N1)OCCc1cc(C3CC(F)(F)C3)sc12 (single isomer, unassigned) [Compound 198]", "Emax, %": 98.7}
{"MOLECULE": "C[C@H]1C[C@@]2(C[C@@H](c3cn(C)nn3)N1)OCC(F)(F)c1cc(Cl)sc12 [Compound 183]", "Emax, %": 99.5}
{"MOLECULE": "C[C@H]1C[C@@]2(C[C@@H](c3ccc(C(N)=O)cc3)N1)OCCc1cc(Cl)sc12 (racemic) [Compound 47]", "Emax, %": 99.3}
{"MOLECULE": "C[C@H]1C[C@@]2(C[C@@H](c3c[nH]nn3)N1)OCCc1cc(Cl)sc12 (racemic) [Compound 72]", "Emax, %": 99.7}
{"MOLECULE": "C[C@H]1C[C@@]2(C[C@@H](c3ccccn3)N1)OCCc1cc(Cl)sc12 (racemic) [Compound 83]", "Emax, %": 99}

Give one value of Emax per listed molecule.
1. C[C@H]1C[C@@]2(C[C@@H](c3cnn(CC(=O)N(C)C)c3)N1)OCCc1cc(Cl)sc12 [Compound 18]
2. C#C[C@@H]1C[C@]2(C[C@H](C)N1)OCCc1cc(Cl)sc12 [Compound 221]
3. C[C@H]1CC2(C[C@H](C)N1)OCCc1sc(C(F)(F)F)cc12 (stereo partly shown) [Compound 195]

[99.5, 99, 76]
